TESTED_ON: DDX3 (Homo sapiens, UniProt O00571)
Sequence (O00571 whole entry): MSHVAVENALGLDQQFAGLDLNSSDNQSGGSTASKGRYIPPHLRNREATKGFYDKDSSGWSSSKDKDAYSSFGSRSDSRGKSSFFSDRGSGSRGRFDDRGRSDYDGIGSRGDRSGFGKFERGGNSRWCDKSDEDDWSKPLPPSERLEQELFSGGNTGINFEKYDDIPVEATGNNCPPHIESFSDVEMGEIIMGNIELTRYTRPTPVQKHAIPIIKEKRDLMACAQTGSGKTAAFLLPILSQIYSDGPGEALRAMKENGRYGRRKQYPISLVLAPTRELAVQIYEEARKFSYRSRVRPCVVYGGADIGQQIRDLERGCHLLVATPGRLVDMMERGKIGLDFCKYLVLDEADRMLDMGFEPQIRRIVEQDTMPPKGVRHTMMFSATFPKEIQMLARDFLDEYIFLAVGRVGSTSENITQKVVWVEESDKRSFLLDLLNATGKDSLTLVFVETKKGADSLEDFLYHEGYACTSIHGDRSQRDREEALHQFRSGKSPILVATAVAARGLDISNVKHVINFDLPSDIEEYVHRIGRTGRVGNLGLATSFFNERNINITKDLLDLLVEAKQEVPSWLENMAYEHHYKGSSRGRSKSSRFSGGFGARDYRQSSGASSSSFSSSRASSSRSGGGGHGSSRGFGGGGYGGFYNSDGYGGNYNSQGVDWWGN
pKd: −log10 of the molar value.
PROPERTY: pKd

[[record]]
compound = "O=C(/C=C/c1ccc(O)cc1)Nc1ccc(O)cc1C(=O)O [AVN A, Avenanthramide A]"
property = "pKd"
numeric_result = 5.06

